tested on: Plasmodium berghei; experiment: Screen against P. berghei liver stage (PbLuc), transformed with Luciferase, at 2uM; assay type: functional, HepG2; conditions: tested at 2 uM
Hit rate of the full screen: of about 68,000 compounds, about 2,700 (4%) showed an effect of 50% or more. What follows is part of a selection rich in strong results, with near analogues and random picks from the rest.
Measured attribute: INHIBITION (%)
Numbers only; they are read as %.

Some solved cases for reference:
Molecule	INHIBITION / %
Cc1cn[nH]c1C1COCCN1C(=O)c1ccc2c(c1)CCCC2 (stereo not drawn)	72.17
COc1ccc(C(=O)N2CCC(Nc3cccnn3)CC2)c(OC)c1	-51.92

Would you kindly look at the next entry?
// INHIBITION value for COC(=O)c1cccc2nc([C@H]3CCN(CC(C)C)C3)oc12 : 53.46

----------
tested on: Plasmodium berghei; test: Screen against P. berghei liver stage (PbLuc), transformed with Luciferase, at 2uM; type: functional, HepG2; conditions: tested at 2 uM
In all, about 68,000 compounds went through this assay and about 2,700 (4%) showed an effect of 50% or more. The list comes from a sample in which strong results are over-represented; it also holds close analogues and randomly drawn compounds.
Measured attribute: INHIBITION
Report as: number unit

Some solved cases for reference:
Cc1cc(CN2C[C@@H]3COC[C@]3(c3nnc(C)o3)C2)no1 -83.05%
Cn1ncc(C(=O)O)c1C(=O)Nc1nc2ccc(Br)cc2s1 3.27%
COCc1csc(NC(=O)NCc2ccc(C)s2)n1 50.93%

Would you kindly look at the next entry?
Reading of INHIBITION for O=C(c1cccs1)N1CCCn2c(nc(CN3CCCC3)cc2=O)C1 with Plasmodium berghei: 13.38%

----------
Recorded measurements of INHIBITION, one per entry
tested on: Plasmodium berghei; assay: Screen against P. berghei liver stage (PbLuc), transformed with Luciferase, at 2uM; assay type: functional, HepG2; details: tested at 2 uM
Out of some 68,000 compounds screened, about 2,700 (4%) showed an effect of 50% or more. This is one part of a sample in which strong results are shown more often than they occur.
Numbers only; they are read as %.

Some solved cases for reference:
Compound	Readout units	INHIBITION
O=C(Cn1ccc2cc(Br)ccc21)NCc1ccc(C(=O)O)cc1	%	18.15
N#Cc1ccc(CNc2ncc(C#N)cc2Cl)cc1	%	51.88
CCc1ncncc1C(=O)NCCNS(=O)(=O)c1ccccc1	%	48.68

// INHIBITION value for CCOCCCC(=O)Nc1cccnc1-n1ccnc1C : -12.09

// INHIBITION value for Cc1nc(CN2C[C@@H]3CCCO[C@@H]3[C@H](N(C)C(C)C)C2)cs1 : -20.01

// INHIBITION value for COC(=O)c1ccc(/C=C/c2ncc(C(=O)O)s2)cc1 : -39.34

// INHIBITION value for CC(C)(C)C(=O)NCCC(=O)NS(=O)(=O)c1cccc(C#N)c1 : -49

// INHIBITION value for CC(=O)Nc1ccc(/C=C/c2ncc(C(=O)O)s2)cc1 : 69.71

// INHIBITION value for CCc1ccc(CN2CCCC(CO)(CCOC)C2)cc1 (centres undefined) : 22.74

// INHIBITION value for Cc1cc(C(C)(O)CNC(=O)c2ccc(Br)o2)c(C)o1 (centres undefined) : 27.32

// INHIBITION value for Cc1cc(C(C)(O)CNC(=O)OC(C)(C)C)c(C)o1 (centres undefined) : 25.21

// INHIBITION value for CC(C)COCCC(=O)Nc1cccnc1-n1cncn1 : 22.88

// INHIBITION value for Cc1cc(C(C)(O)CNC(=O)C2(C)CCCC2)c(C)o1 (centres undefined) : 65.92

// INHIBITION value for OC1CCN(c2ccnc(NCCc3ccccc3Cl)n2)C1 (centres undefined) : 0.72

// INHIBITION value for CS(=O)(=O)Cc1ccc(CNc2ncc(C#N)cc2Cl)cc1 : -35.5

// INHIBITION value for Cc1ccc(-c2cc(N)c(=O)n(C(C)C(=O)NCC3CCCCC3)n2)s1 (centres undefined) : -1.07

// INHIBITION value for Cc1cc(NC(=O)C(C)Nc2cccc(COCc3ccco3)c2)no1 (centres undefined) : 21.57

// INHIBITION value for Cc1nc(C)c(CNC(=O)N2CCc3ccccc3C2CO)s1 (centres undefined) : 5.98

// INHIBITION value for CNc1ncc(C(=O)N2CCOC(C(=O)NC3CCCC3)C2)cn1 (centres undefined) : 8.75

----------
system: Plasmodium berghei; experiment: Screen against P. berghei liver stage (PbLuc), transformed with Luciferase, at 2uM; type: functional, HepG2; conditions: tested at 2 uM
About 2,700 (4%) of roughly 68,000 compounds showed an effect of 50% or more. The sample as a whole holds a higher share of strong results than the screen did.
Measured attribute: INHIBITION
Report as: number unit

Some solved cases for reference:
Molecule	INHIBITION
COCC(=O)N1CC[C@]2(O)CCN(Cc3ccsc3)C[C@@H]2C1	19.49%
CN(Cc1ccco1)Cc1cnc2n1CCN(c1ccccn1)CC2	-18.6%
c1cnc(N2CCC3(CCN(Cc4cccnc4)CC3)CC2)nc1	45.82%
COCCN1C[C@@H]2[C@@H](OC)CCN(Cc3ccsc3)[C@@H]2C1	20.91%
CCN1CC(COC(=O)c2ccc(Br)cc2F)CC1=O (stereo unspecified)	17.86%
Cc1cc(=O)[nH]c(NCCNC(=O)CN2CCCCCC2)n1	56.93%
Cc1cc(-c2nc(-c3ccccn3)nn2C2CCN(C)CC2)nc(C)n1	14.19%
c1cnc(N2CC3(CCN(Cc4cccnc4)C3)C2)nc1	52.91%
O=C(Cn1ccc2ccc(Cl)cc21)NCc1ccc(C(=O)O)cc1	30.98%
COCCC1(C(=O)O)CCCN(Cc2cc3c(cc2C)OCO3)C1 (stereo unspecified)	-48.91%

// INHIBITION value for O=C(NC1CC1)c1cnc(-c2noc3cc(N4CCCCC4)ccc23)s1 : 18.11%

// INHIBITION value for CC(C)CCN1CCCC12Cc1ccccc1CNC2=O (stereo unspecified) : -6.64%

// INHIBITION value for COCC(=O)N1CCC2(CC1)C(=O)N(Cc1cccnc1)CCN2C : 33.3%

// INHIBITION value for O=C(C1CCCO1)N1CCC2(CC1)COCCN(Cc1ccncc1)C2 (stereo unspecified) : -66.98%

// INHIBITION value for Cc1cc(=O)[nH]c(NCCNC(=O)c2ccccc2N2CCCC2)n1 : 41.14%

// INHIBITION value for COc1ccc(-c2noc(CN3CCN(c4cnccn4)CC3)n2)cc1 : 32.88%

----------
Recorded measurements of INHIBITION, one per entry
tested on: Plasmodium berghei; assay: Screen against P. berghei liver stage (PbLuc), transformed with Luciferase, at 2uM; assay type: functional, HepG2; settings: tested at 2 uM
About 2,700 (4%) of roughly 68,000 compounds showed an effect of 50% or more. The full list was thinned out, with strong results kept by preference.
Numbers only; they are read as %.

Some solved cases for reference:
Compound	Measured attribute	Readout units	Measurement
OCC1(O)CCN(c2ccnc3c(C(F)(F)F)cccc23)CC1	INHIBITION	%	-100.41
CC(C)CN1C(=O)CO[C@@H]2CNC[C@H]21	INHIBITION	%	70.31
N[C@@H]1c2ccccc2C2(CCN(c3ncccc3C(F)(F)F)CC2)[C@H]1O	INHIBITION	%	-7.99

// INHIBITION value for CC(=O)N1CCCC2(CCN(c3nncs3)C2)C1 (stereo not given) : 19.58

// INHIBITION value for COc1ccc2c(c1)CN(Cc1ccco1)C(=O)CCN2CC(C)(C)O : -35.52

// INHIBITION value for COCCC(=O)N1C[C@@H](c2ccccc2F)[C@@]2(CCCC(=O)N2)C1 : -6.19

----------
Recorded measurements of INHIBITION, one per entry
test system: Plasmodium berghei; assay: Screen against P. berghei liver stage (PbLuc), transformed with Luciferase, at 2uM; type: functional, HepG2; conditions: tested at 2 uM
In all, about 68,000 compounds went through this assay and about 2,700 (4%) showed an effect of 50% or more. Only a selection was taken, and strong results are over-represented in it overall.

Some solved cases for reference:
Compound	Subject of test	INHIBITION
CCCN1C[C@@H]2CC[C@H]1CN(C(=O)c1ccc(N(C)CCO)cc1)C2	Plasmodium berghei	6.73%
Cc1nc(C)c(CN2CCOC(Cc3ccccc3Cl)C2)nc1C (stereo unspecified)	Plasmodium berghei	63.37%
CN(C)CCOCc1cncc2c1CCN(C(=O)C1CCOCC1)C2	Plasmodium berghei	26.48%
CNS(=O)(=O)c1cccc(C(C)NCc2ccccc2)c1 (stereo unspecified)	Plasmodium berghei	12.75%
O=C(O)C(c1ccc2c(c1)OCCO2)N1CCCCCC1 (stereo unspecified)	Plasmodium berghei	19.56%
Cc1cnn(CC2CCCN2C(=O)c2ccccc2-n2cnnn2)c1 (stereo unspecified)	Plasmodium berghei	21.39%
Cc1cc(NCc2ccccc2CN2CCCCC2)n2ncnc2n1	Plasmodium berghei	-1.87%
CC(CO)NS(=O)(=O)c1cccc(C(C)C)c1 (stereo unspecified)	Plasmodium berghei	60.13%
Cc1oc(-c2ccsc2)nc1CN1CCCC(c2ccnn2C)C1 (stereo unspecified)	Plasmodium berghei	13.88%
Cc1ccc(S(=O)(=O)NC(C)C#N)cc1Br (stereo unspecified)	Plasmodium berghei	-29.94%

Would you kindly look at the next entry?
// INHIBITION value for Cc1cc(C(=O)Nc2n[nH]c(C3CC3)n2)c2c(C)noc2n1 : -54.55%
